Source listed as ChEMBL document CHEMBL5058577.

This listing pairs molecules with measured Population Pyknosed Nuclei (%).
Tested on: Fibroblast
test.summary: Multiplex assay against human fibroblast
Type: toxicity, cell-based
condition.label: 48 h, 1 µM, compound concentration 1 uM, replicate 1
measurement.label: Population Pyknosed Nuclei (%)

molecule=COc1ccc2[nH]c(I)c(CCNC(C)=O)c2c1 value_reported=18%
molecule=N[C@](CC1c2ccccc2Oc2ccccc21)(C(=O)O)[C@H]1C[C@@H]1C(=O)O value_reported=14%
molecule=C=CCN1C[C@H](C(=O)N(CCCN(C)C)C(=O)NCC)C[C@@H]2c3cccc4[nH]cc(c34)C[C@H]21 value_reported=8%
molecule=Cc1cc(NC(=O)NCCN2CCC(O)(Cc3ccccc3)CC2)c2ccccc2n1 value_reported=11%
molecule=COC(c1ccccc1)(c1ccccc1)[C@H](Oc1nc(C)cc(C)n1)C(=O)O value_reported=16%
molecule="CN1C[C@H](C(=O)N[C@]2(C)O[C@@]3(O)[C@@H]4CCCN4C(=O)[C@H](Cc4ccccc4)N3C2=O)C[C@@H]2c3cccc4[nH]cc(c34)C[C@H]21.CS(=O)(=O)O [DIHYDROERGOTAMINE MESYLATE]" value_reported=10%
molecule=Cc1cc(O)c(-c2ccc([C@@H](C)CN(C)C)cc2)c2c1[nH]c(=O)c1sccc12 value_reported=24%
molecule=Nc1nc(CC(=O)Nc2ccc(CCNC[C@H](O)c3ccccc3)cc2)cs1 value_reported=15%
molecule="CN(C)C/C=C/C(=O)Nc1ccc(C(=O)N2CCCC(Nc3ncc(Cl)c(-c4c[nH]c5ccccc45)n3)C2)cc1 (stereo unspecified)" value_reported=30%
molecule=Cn1cc(C(=O)OCC2CCN(CCNS(C)(=O)=O)CC2)c2ccccc21 value_reported=12%
molecule=COc1cc(OC2CCN(C(C)=O)CC2)ccc1C(=O)N1CCC(N2C(=O)OCc3ccccc32)CC1 value_reported=14%
molecule=Cc1sc2c(c1C)C(c1ccc(Cl)cc1)=N[C@H](CC(=O)OC(C)(C)C)c1nnc(C)n1-2 value_reported=13%
molecule=Cc1cc(-c2ccc3c(c2)CC[C@H]3N2CC3(CCN(C(=O)Cc4cn5cc(C)sc5n4)CC3)C2)ncn1 value_reported=9%
molecule=OCCCNc1cc(-c2ccnc(Nc3cccc(Cl)c3)n2)ccn1 value_reported=25%
molecule=COc1cc(Nc2ncc3c(n2)-c2ccc(Cl)cc2C(c2c(F)cccc2OC)=NC3)ccc1C(=O)O value_reported=19%
molecule=Cc1c(Cc2ccc3ccccc3n2)c2cc(F)ccc2n1CC(=O)O value_reported=12%

###

Tested on: Fibroblast
test.summary: Multiplex assay against human fibroblast
Assay type: toxicity, cell-based
condition.label: 24 h, 1 µM, compound concentration 1 uM, replicate 2
Non-standard residues stand in square brackets, D forms with d. Residues, ends and D or L forms follow the SMILES beside them.
measurement.label: Population Fragmented Nuclei (%)

molecule="Cc1ccc(OCC(O)C(C)NC(C)C)c2c1CCC2.Cl (stereo unspecified)" value_reported=27%
molecule="COc1cc(Nc2ncc3c(n2)-c2ccc(Cl)cc2C(c2c(F)cccc2OC)=NC3)ccc1C(=O)O [ALISERTIB]" value_reported=26%
molecule="O=c1nc2[nH]c3ccccc3nc-2c(=O)[nH]1 [ALLOXAZINE]" value_reported=31%
molecule="CC(C)C[C@H](CO)Nc1nc(S[C@@H](C)c2ccccc2)nc2nc(N)sc12 [AZD-8797]" value_reported=29%
molecule=N[C@](CC1c2ccccc2Oc2ccccc21)(C(=O)O)[C@H]1C[C@@H]1C(=O)O value_reported=27%
molecule="COCCCN1CCC(NC(=O)c2cc(Cl)c(N)c3c2OCC3)CC1 [PRUCALOPRIDE]" value_reported=36%
molecule=CN1CCC(C(=O)c2cccc(NC(=O)c3c(F)cc(F)cc3F)n2)CC1 value_reported=34%
molecule=CCc1nn2c(C)cc(C)nc2c1Cc1ccc(-c2nnc(C3CCNCC3)o2)cc1 value_reported=26%
molecule="CSc1nc(NC2CCCC2)c([N+](=O)[O-])c(NC2CCCC2)n1 [GS-39783]" value_reported=31%
molecule="Cl.Cl.OCCOCCN1CCN(C(c2ccccc2)c2ccc(Cl)cc2)CC1 (stereo unspecified) [HYDROXYZINE HYDROCHLORIDE]" value_reported=26%
molecule="O=C(O)CCC/C=C\\CC1C(O)CC(O)C1/C=C/C(O)COc1cccc(Cl)c1 (stereo unspecified) [CLOPROSTENOL]" value_reported=27%
molecule=COc1cc2nc(N3CCN(C(=O)COc4c(OC)cccc4C(C)C)CC3)nc(N)c2cc1OC.Cl.Cl value_reported=40%
molecule=CC(C)(O)C(=O)N1CCN(c2ccc(C(F)(F)F)c(C3=C(c4c[nH]c5ccccc45)C(=O)NC3=O)c2)CC1 value_reported=31%
molecule="CC(C)C[C@@H]1NC(=O)[C@@H](C(C)C)NC(=O)[C@@H]2CCCN2C(=O)[C@@H](CC(=O)O)NC(=O)[C@@H](Cc2c[nH]c3ccccc23)NC1=O [BQ-123] (cyclo(L[dW][dD]P[dV]))" value_reported=23%
molecule=COc1cc(C(=O)N2CC[C@@H](O)[C@@H](N)C2)cc2nc(-c3cc4ccccc4n3CC3CC3)n(C)c12.Cl value_reported=31%
molecule=COCCn1c(C)c(C)s/c1=N\C(=O)C1C(C)(C)C1(C)C value_reported=28%
molecule="O=C(NCCNCC(O)COc1ccc(O)cc1)N1CCOCC1.O=C(NCCNCC(O)COc1ccc(O)cc1)N1CCOCC1.O=C(O)/C=C/C(=O)O (stereo unspecified) [XAMOTEROL FUMARATE]" value_reported=28%
molecule="CN1C[C@H](C(=O)N[C@]2(C)O[C@@]3(O)[C@@H]4CCCN4C(=O)[C@H](Cc4ccccc4)N3C2=O)C[C@@H]2c3cccc4[nH]cc(c34)C[C@H]21.CS(=O)(=O)O [DIHYDROERGOTAMINE MESYLATE]" value_reported=30%
molecule=Cc1cc(=O)n(C)c2cc(N3C(=O)CC[C@H](NS(=O)(=O)CC(C)C)[C@H]3c3ccc(Cl)cc3)ccc12 value_reported=26%
molecule=COc1cc(OC2CCN(C(C)=O)CC2)ccc1C(=O)N1CCC(N2C(=O)OCc3ccccc32)CC1 value_reported=28%
molecule=Nc1nc(-c2ccco2)c2cnn(Cc3ccccc3F)c2n1 value_reported=29%

###

Test system: Fibroblast
test.summary: Multiplex assay against human fibroblast
Format: toxicity, cell-based
condition.label: 48 h, 10 µM, compound concentration 10 uM, replicate 1
This listing pairs compounds with measured Population Pyknosed Nuclei (%).
measurement.label: Population Pyknosed Nuclei (%)

compound=CC(C)(C)c1ccc(CSc2cnn(C(C)(C)C)c(=O)c2Cl)cc1 value_reported=18%
compound=Cc1sc2c(c1C)C(c1ccc(Cl)cc1)=N[C@H](CC(=O)OC(C)(C)C)c1nnc(C)n1-2 value_reported=12%
compound=Cc1cc(NC(=O)NCCN2CCC(O)(Cc3ccccc3)CC2)c2ccccc2n1 value_reported=10%
compound=CSc1nc(NC2CCCC2)c([N+](=O)[O-])c(NC2CCCC2)n1 value_reported=14%
compound="COCCCN1CCC(NC(=O)c2cc(Cl)c(N)c3c2OCC3)CC1 [PRUCALOPRIDE]" value_reported=10%
compound=C[C@@H]1CC(=O)Nc2cccc(-c3ccc4c(c3)c(-c3cnn(C)c3)nn4C)c2N1 value_reported=8%
compound=COc1c(Nc2ccc(S(C)(=O)=O)nc2C)ncnc1OC1CCN(C(=O)OC(C)C)CC1 value_reported=12%
compound=O=C(Nc1cc(-c2ccccc2)nn1-c1ccccc1F)c1ccc([N+](=O)[O-])cc1 value_reported=12%
compound=C=CCN1C[C@H](C(=O)N(CCCN(C)C)C(=O)NCC)C[C@@H]2c3cccc4[nH]cc(c34)C[C@H]21 value_reported=6%
compound=O=c1ccc2ccc(OCCCCN3CCN(c4cccc5sccc45)CC3)cc2[nH]1 value_reported=31%
compound="CCC(=O)OCC(=O)[C@@]1(OC(=O)CC)[C@@H](C)C[C@H]2[C@@H]3CCC4=CC(=O)C=C[C@]4(C)[C@@]3(Cl)[C@@H](O)C[C@@]21C [BECLOMETHASONE DIPROPIONATE]" value_reported=24%
compound="CCn1c(-c2nc3cc(C(=O)N4CCCC(N)C4)ccc3n2C)cc2ccccc21.Cl (configuration not stated)" value_reported=8%
compound=CCc1nn2c(C)cc(C)nc2c1Cc1ccc(-c2nnc(C3CCNCC3)o2)cc1 value_reported=13%
compound=CN1CCN(c2ccc(Nc3c4ccccc4nc4ccccc34)cc2)CC1.Cl.Cl.O value_reported=12%
compound=Cc1nn(C)c2nc(NNC(=O)Nc3cc(Cl)nc(Cl)c3)cc(C(C)C)c12 value_reported=13%
compound=Cc1cc(-c2ccc3c(c2)CC[C@H]3N2CC3(CCN(C(=O)Cc4cn5cc(C)sc5n4)CC3)C2)ncn1 value_reported=10%
compound=O=c1nc2[nH]c3ccccc3nc-2c(=O)[nH]1 value_reported=11%

###

This listing pairs molecules with measured Population Tubulin-Different-Phenotype (%).
Tested on: Fibroblast
test.summary: Multiplex assay against human fibroblast
Assay type: toxicity, cell-based
condition.label: 24 h, 1 µM, compound concentration 1 uM, replicate 2
measurement.label: Population Tubulin-Different-Phenotype (%)

molecule=CN(C)C(=O)Cn1cc(-c2ccc(-c3nnc4ccccn34)cc2)cn1 target_under_test=Fibroblast output_unit=% value_reported=41
molecule="CN(C)C/C=C/C(=O)Nc1ccc(C(=O)N2CCCC(Nc3ncc(Cl)c(-c4c[nH]c5ccccc45)n3)C2)cc1 (configuration not stated)" target_under_test=Fibroblast output_unit=% value_reported=54
molecule=COCCn1c(C)c(C)s/c1=N\C(=O)C1C(C)(C)C1(C)C target_under_test=Fibroblast output_unit=% value_reported=37
molecule="O=c1nc2[nH]c3ccccc3nc-2c(=O)[nH]1 [ALLOXAZINE]" target_under_test=Fibroblast output_unit=% value_reported=31
molecule="CN1C[C@H](C(=O)N[C@]2(C)O[C@@]3(O)[C@@H]4CCCN4C(=O)[C@H](Cc4ccccc4)N3C2=O)C[C@@H]2c3cccc4[nH]cc(c34)C[C@H]21.CS(=O)(=O)O [DIHYDROERGOTAMINE MESYLATE]" target_under_test=Fibroblast output_unit=% value_reported=50
molecule=COc1cc(OC2CCN(C(C)=O)CC2)ccc1C(=O)N1CCC(N2C(=O)OCc3ccccc32)CC1 target_under_test=Fibroblast output_unit=% value_reported=31
molecule="C=CCN1C[C@H](C(=O)N(CCCN(C)C)C(=O)NCC)C[C@@H]2c3cccc4[nH]cc(c34)C[C@H]21 [CABERGOLINE]" target_under_test=Fibroblast output_unit=% value_reported=39
molecule="CCC(=O)OCC(=O)[C@@]1(OC(=O)CC)[C@@H](C)C[C@H]2[C@@H]3CCC4=CC(=O)C=C[C@]4(C)[C@@]3(Cl)[C@@H](O)C[C@@]21C [BECLOMETHASONE DIPROPIONATE]" target_under_test=Fibroblast output_unit=% value_reported=60
molecule="COc1ccc2[nH]c(I)c(CCNC(C)=O)c2c1 [IODOMELATONIN]" target_under_test=Fibroblast output_unit=% value_reported=39
molecule="O=C(O)CCC/C=C\\CC1C(O)CC(O)C1/C=C/C(O)COc1cccc(Cl)c1 (configuration not stated) [CLOPROSTENOL]" target_under_test=Fibroblast output_unit=% value_reported=53
molecule=S=C(NCCCc1c[nH]cn1)NCCCN(Cc1ccc(Cl)c(Cl)c1)c1ccc(Br)cn1 target_under_test=Fibroblast output_unit=% value_reported=42
molecule="CN1CCN2c3ccccc3Cc3ccccc3C2C1.Cl (configuration not stated) [MIANSERIN HYDROCHLORIDE]" target_under_test=Fibroblast output_unit=% value_reported=53
molecule=CCc1nn2c(C)cc(C)nc2c1Cc1ccc(-c2nnc(C3CCNCC3)o2)cc1 target_under_test=Fibroblast output_unit=% value_reported=65
molecule=CC(F)(F)CN1CCOc2c(nn(-c3ccccc3Cl)c2-c2ccc(Cl)cc2)C1=O target_under_test=Fibroblast output_unit=% value_reported=75
molecule="CCCCC[C@H](O)/C=C/[C@H]1[C@H](O)CC(=O)[C@@H]1CCCCCCC(=O)O [ALPROSTADIL]" target_under_test=Fibroblast output_unit=% value_reported=40
molecule="Cc1ccc(OCC(O)C(C)NC(C)C)c2c1CCC2.Cl (configuration not stated)" target_under_test=Fibroblast output_unit=% value_reported=52
molecule=C[C@@H]1CC(=O)Nc2cccc(-c3ccc4c(c3)c(-c3cnn(C)c3)nn4C)c2N1 target_under_test=Fibroblast output_unit=% value_reported=60
